Measured values drawn from ChEMBL document CHEMBL1127529 for this set.

As shown below, each of these compounds has a reported pIC50 value.
- Measured Target: Arachidonate 5-lipoxygenase (Bos taurus)
- Sequence (Q9BEG3 whole entry): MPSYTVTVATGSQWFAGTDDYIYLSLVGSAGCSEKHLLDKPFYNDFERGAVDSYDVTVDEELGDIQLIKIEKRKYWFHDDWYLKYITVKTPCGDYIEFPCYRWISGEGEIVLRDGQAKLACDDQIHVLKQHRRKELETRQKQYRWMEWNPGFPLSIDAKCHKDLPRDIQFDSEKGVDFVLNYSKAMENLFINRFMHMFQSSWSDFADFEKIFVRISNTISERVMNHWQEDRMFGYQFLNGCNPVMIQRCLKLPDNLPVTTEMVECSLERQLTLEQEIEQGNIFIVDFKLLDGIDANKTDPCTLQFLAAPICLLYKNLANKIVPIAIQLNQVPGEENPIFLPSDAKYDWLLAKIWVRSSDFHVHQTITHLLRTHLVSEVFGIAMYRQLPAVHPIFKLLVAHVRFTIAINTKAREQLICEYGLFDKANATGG
- Assay Comment: Inhibition of 5-lipoxygenase in bovine polymorphonuclear leukocytes
pIC50: −log10 of the molar value.

Answered cases to consult:
- Test Smiles: "COc1ccc(Cc2ccc3c(c2O)C(=O)c2c(O)cccc2C3)cc1OC"
  Value: "< 4.52"
- Test Smiles: "COC(=O)c1ccc(Cc2ccc3c(c2O)C(=O)c2c(O)cccc2C3)cc1"
  Value: "< 4.52"

Ask | Give pIC50 for the following compound: O=C1c2c(O)cccc2Cc2ccc(Cc3cccc(Oc4ccccc4)c3)c(O)c21
Reply | < 4.52

Ask | Give pIC50 for the following compound: COc1ccc(Cc2ccc3c(c2O)C(=O)c2c(O)cccc2C3)cc1
Reply | < 4.52

Ask | Give pIC50 for the following compound: COC(=O)c1ccccc1Cc1ccc2c(c1O)C(=O)c1c(O)cccc1C2
Reply | < 4.52

Ask | Give pIC50 for the following compound: Cc1ccc(Cc2ccc3c(c2O)C(=O)c2c(O)cccc2C3)cc1
Reply | < 4.52

Ask | Give pIC50 for the following compound: O=C1c2c(O)cccc2Cc2ccc(Cc3ccc(Cl)cc3)c(O)c21
Reply | < 4.52

Ask | Give pIC50 for the following compound: O=C1c2c(O)cccc2Cc2ccc(Cc3ccc(O)cc3)c(O)c21
Reply | 5.15

Ask | Give pIC50 for the following compound: O=C1c2c(O)cccc2Cc2ccc(Cc3ccc(O)cc3O)c(O)c21
Reply | 5.30

----------
- Assay Comment: Deoxyribose degradation as a measure of hydroxy radical formation.
- Type: functional
As shown below, each of these molecules has a reported DD (uM of MDA mM-1) value.

Answered cases to consult:
- Test Smiles: "COc1ccc(Cc2ccc3c(c2O)C(=O)c2c(O)cccc2C3)cc1"
  Value: "< 0.25"
- Test Smiles: "COc1ccc(Cc2cc(O)c3c(c2)Cc2cccc(O)c2C3=O)cc1"
  Value: "< 0.15"
- Test Smiles: "O=C1c2c(O)cccc2Cc2ccc(CCCCc3ccccc3)c(O)c21"
  Value: "< 0.15"
- Test Smiles: "O=C1c2c(O)cccc2Cc2ccc(Cc3ccc(Cl)cc3)c(O)c21"
  Value: "< 0.15"

Ask | Give DD (uM of MDA mM-1) for the following molecule: O=C(O)c1ccc(Cc2ccc3c(c2O)C(=O)c2c(O)cccc2C3)cc1
Reply | < 0.25

Ask | Give DD (uM of MDA mM-1) for the following molecule: COc1cc(CCCc2ccc3c(c2O)C(=O)c2c(O)cccc2C3)cc(OC)c1OC
Reply | < 0.15

----------
- Tested on: Liposome
- Assay Comment: Inhibition of 2,2'-azobis(2-aminopropane)hydrochloride (AAPH) induced lipid peroxidation in bovine brain phospholipid liposomes
- Assay type: functional, subcellular, Bos taurus
pIC50: −log10 of the molar value.
As shown below, each of these compounds has a reported pIC50 value.

Ask | Report its pIC50 with Liposome as the test system: COc1ccc(OC)c(Cc2ccc3c(c2O)C(=O)c2c(O)cccc2C3)c1
Reply | < 3.70

Ask | Report its pIC50 with Liposome as the test system: COc1c(OC)c(OC(C)=O)c2cc(Cl)ccc2c1OC(C)=O
Reply | < 4.30

Ask | Report its pIC50 with Liposome as the test system: COc1ccc(Cc2cc(O)c3c(c2)Cc2cccc(O)c2C3=O)c(OC)c1
Reply | < 3.70

----------
- Assay Comment: Deoxyribose degradation as a measure of hydroxy radical formation.
- Type: functional
Measured Quantity: DD (uM of MDA mM-1)

- Test Smiles: "COc1ccc(OC)c(Cc2ccc3c(c2O)C(=O)c2c(O)cccc2C3)c1"
  DD (uM of MDA mM-1): "< 0.15"
- Test Smiles: "COC(=O)c1ccccc1Cc1ccc2c(c1O)C(=O)c1c(O)cccc1C2"
  DD (uM of MDA mM-1): "< 0.15"
- Test Smiles: "COC(=O)c1ccc(Cc2ccc3c(c2O)C(=O)c2c(O)cccc2C3)cc1"
  DD (uM of MDA mM-1): "< 0.25"

Ask | Give DD (uM of MDA mM-1) for the following compound: O=C1c2c(O)cccc2Cc2ccc(CCCc3ccc(O)cc3)c(O)c21
Reply | < 0.15

Ask | Give DD (uM of MDA mM-1) for the following compound: O=C1c2c(O)cccc2Cc2ccc(Cc3cccc(Oc4ccccc4)c3)c(O)c21
Reply | < 0.15
